- System: AncSZ;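 also: 11-residue human phosphosite peptides and single-mutation variants displayed on the E. coli surface, counted by deep sequencing, each peptide's frequency after selection divided by its frequency in the unselected input library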;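 also: frequency after pTyr selection over input frequency; kinase dosed for 20-30% of maximal phosphorylation in three min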
- experiment-description: phosphorylation enrichment, bacterial display (enrichment ratio); higher = better substrate or ligand; peptides without Tyr show the background
phosphorylation enrichment values, listed per item
Answer with a number only.

Example results:
{"macromolecule-sequence": "GRTGHYLCNAC [GATA1_Y223_D218G]", "phosphorylation enrichment": 0.445}
{"macromolecule-sequence": "FSKTQYNQVPS [CXADR_Y318_YF]", "phosphorylation enrichment": 0.801}
{"macromolecule-sequence": "TENAGYFFRIS", "phosphorylation enrichment": 1.52}

phosphorylation enrichment of SFLFHYADDSF [RAB3C_Y50_R49H] , assay on AncSZ, is 0.905

So the reported phosphorylation enrichment for GSERDYTYDEL [EIF2S2_Y174_E177D] , on AncSZ, turned out to be 1.14

The value of phosphorylation enrichment recorded for IGERTYGQVFK [CDK13_Y716_G714R_YF] when tested on AncSZ reads 0.62

AncSZ phosphorylation enrichment of FKTPTYPFLLP [PLD2_Y578_YF] is 0.641

Record NNPAYYVLEGV [INPPL1_Y987] ; system AncSZ; phosphorylation enrichment = 1.15

Fill in: AncSZ phosphorylation enrichment for PRDGEYFTLQI [TP53_Y327_L323R] = 2.81

phosphorylation enrichment for AncSZ with input REENGYNTFAS [FGF10_Y161_I156R_YF] equals 0.973

Reading of phosphorylation enrichment for FFHCTYKKRMI [CLEC12A_Y242_YF] with AncSZ: 0.894

GET /values?item= NFDRVYIYHLR [MYOF_Y1137] &system= AncSZ returns phosphorylation enrichment: 1.19

Recorded phosphorylation enrichment for KDHPDYKYQRR [SOX10_Y171_P175R] on AncSZ was 0.483

The value of phosphorylation enrichment recorded for DCAAIYGNEPD [AKR1A1_Y50_E55D] when tested on AncSZ reads 1.35

Recorded phosphorylation enrichment for LTERGYSFTTT [ACTB_Y198] on AncSZ was 0.837

Form: item CGTPEYRAPEI [PRKACA_Y205_L206R] ; test system AncSZ; phosphorylation enrichment: 1.17

Readout phosphorylation enrichment for LGRGKYSEVFE [CSNK2A1_Y50] , test system AncSZ, was 1.01

Tested on AncSZ, the item PQIVNYSPDCI [LDHB_Y128_K127N] showed phosphorylation enrichment equal to 0.415

// phosphorylation enrichment (AncSZ) for QNTVDYFDLFG [PTPN11_Y62_G60V_YF] = 2.35
